# study_target: hQC (Homo sapiens, UniProt Q16769)
# Sequence (Q16769 29-361): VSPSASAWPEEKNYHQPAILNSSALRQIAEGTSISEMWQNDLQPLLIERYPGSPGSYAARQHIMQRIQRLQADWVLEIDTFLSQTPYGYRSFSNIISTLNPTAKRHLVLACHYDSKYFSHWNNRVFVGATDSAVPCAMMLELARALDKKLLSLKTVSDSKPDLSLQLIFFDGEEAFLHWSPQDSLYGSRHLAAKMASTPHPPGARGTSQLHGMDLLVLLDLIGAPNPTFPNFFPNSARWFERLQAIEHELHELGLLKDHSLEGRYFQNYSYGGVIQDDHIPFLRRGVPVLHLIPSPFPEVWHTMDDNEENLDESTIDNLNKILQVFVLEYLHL
# method_description: Fluorometric (fluorescent) assay of hQC inhibition, IC50
# Type: biochemical
# condition_description: purified compound from preparative synthesis; fluorescent assay; read-out: IC50 hQC
quantity_name: IC50 (nM)

Completed entries (count: 4):
CN(C)CCn1nnnc1C(NCCCn1ccnc1)C1CCC=CO1 (stereo not shown): 2880
Cc1ccc(O)c(C(NCCCn2ccnc2)c2nnnn2CC(C)(C)C)c1 (stereo not shown): 2370
Cc1ccc(O)c(C(NCCCn2ccnc2)c2nnnn2C2CC2)c1 (stereo not shown): 668
Clc1ccc(Cn2nnnc2C(NCCCn2ccnc2)c2ccc3[nH]ccc3c2)cc1 (stereo not shown): 450

a. Cc1ccc(O)c(C(NCCCn2ccnc2)c2nnnn2Cc2ccc(Cl)cc2)c1 (stereo not shown)
b. C1=COC(C(NCCCn2ccnc2)c2nnnn2C2CCCC2)CC1 (stereo not shown)
c. CC(C)(C)Cn1nnnc1C(NCCCn1ccnc1)c1ccc2cccc(O)c2n1 (stereo not shown)
Given 3 compounds, produce a descending ranking by IC50. Write the labels, ordered according to the request.
b, c, a
(b: 3470 nM, c: 1030 nM, a: 584 nM)
